Origin of values: patent US20180291110A1

Here, each record is paired with measured Kd data.
target: T1, Her2 ECD (amino acids 1 to 629 of matured HER2 with C-terminal avi-tag and His-tag) (human, UniProt P04626 23-652); assay: SPR, Ab captured, Her2 analyte;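 further: ProteOn XPR36 SPR, rate constants from simultaneous fit of association and dissociation sensorgrams to a 1:1 Langmuir model, buffer-channel referenced, KD taken as koff/kon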
T1 construct: also called purified Her2
Readout Type: Kd (nM)

{"Binder": "Pertuzumab HC x Pertuzumab (Tras.L3) G66R LC (antibody, V domains shown) VH: EVQLVESGGGLVQPGGSLRLSCAASGFTFTDYTMDWVRQAPGKGLEWVADVNPNSGGSIYNQRFKGRFTLSVDRSKNTLYLQMNSLRAEDTAVYYCARNLGPSFYFDYWGQGTLVTVSS VL: DIQMTQSPSSLSASVGDRVTITCKASQDVSIGVAWYQQKPGKAPKLLIYSASYRYTGVPSRFSGSRSGTDFTLTISSLQPEDFATYYCQQHYTTPPTFGQGTKVEIK", "Recorded Measurement": 6.91}
{"Binder": "Pertuzumab HC x Pertuzumab (Tras.L3) T56S LC (antibody, V domains shown) VH: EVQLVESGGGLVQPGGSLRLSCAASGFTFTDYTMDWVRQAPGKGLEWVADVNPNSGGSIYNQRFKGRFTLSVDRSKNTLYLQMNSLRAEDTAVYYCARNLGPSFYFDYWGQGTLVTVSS VL: DIQMTQSPSSLSASVGDRVTITCKASQDVSIGVAWYQQKPGKAPKLLIYSASYRYSGVPSRFSGSGSGTDFTLTISSLQPEDFATYYCQQHYTTPPTFGQGTKVEIK", "Recorded Measurement": 5.52}
{"Binder": "Pertuzumab HC x Pertuzumab (Tras.L3) LC (antibody, V domains shown, human IgG) VH: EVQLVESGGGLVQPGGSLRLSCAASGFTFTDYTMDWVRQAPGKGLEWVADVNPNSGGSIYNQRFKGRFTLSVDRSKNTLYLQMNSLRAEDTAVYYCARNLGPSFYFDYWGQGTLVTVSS VL: DIQMTQSPSSLSASVGDRVTITCKASQDVSIGVAWYQQKPGKAPKLLIYSASYRYTGVPSRFSGSGSGTDFTLTISSLQPEDFATYYCQQHYTTPPTFGQGTKVEIK", "Recorded Measurement": 4.96}
